assay_comment: physchem
test_context: pH 7.4, aqueous buffer, kinetic from dmso stock, Solubility Range
property_measured: solubility at 24 h

Previously resolved entries follow.
CCNC(=O)Nc1nc2cc(-c3cnnc(N4CCC(C)(C(=O)O)CC4)c3)cc(-c3ccccn3)c2s1; > 800 µg/mL
CCNC(=O)Nc1nc2cc(-c3cnc(N4CCC(CC)(C(=O)O)CC4)cn3)cc(-c3ccccn3)c2s1; > 800 µg/mL
CCNC(=O)Nc1nc2cc(-c3cnc(N4CCC(C)(C(=O)O)CC4)nc3)cc(-n3cccn3)n2n1; 400 to 800 µg/mL
CCNC(=O)Nc1nc2cc(-c3cnc(N4CCC(CC)(C(=O)O)CC4)nc3)cc(/C=N\OC)c2s1; > 800 µg/mL
CCNC(=O)Nc1nc2cc(-c3cnc(N4CCC(O)C(C)(C(=O)O)C4)nc3)cc(-c3ccccn3)c2s1 (stereo not shown); 400 to 800 µg/mL

Please supply solubility at 24 h for each of the following items, keeping them in order.
1. CCNC(=O)Nc1nc2cc(-c3cnc(N4CCC(C#N)(C(=O)OCC)CC4)nc3)cc(-c3ccccn3)c2s1
2. CCNC(=O)Nc1nc2cc(-c3cnc(N4CCC(N)(C(=O)OC)CC4)nc3)cc(-c3ccccn3)c2s1

Reply text:
< 12.5 µg/mL
12.5 to 400 µg/mL

---

Please provide measured solubility at 24 h for the entries that follow.
assay_comment: physchem
test_context: pH 7.4, aqueous buffer, kinetic from dmso stock, Solubility (pH 7.4)
Give bare numbers, in µg/mL.

CCNC(=O)Nc1nc2cc(-c3cnc(N4CCC(C)(C(=O)O)CC4)nc3)cc(-c3ncc(C#N)cc3F)c2s1 [Compound 63]; 400
CCNC(=O)Nc1nc2cc(-c3cnc(N4CCC(C)(C(=O)O)CC4)nc3)cc(-c3cncc(OC)n3)c2s1 [Compound 81]; 200
CCNC(=O)Nc1nc2cc(-c3cnc(N4CCC(C)(C(=O)O)CC4)nc3)cc(-c3cnc(OCC)s3)c2s1 [Compound 78]; 400

Inquiry: # get_value(readout='solubility at 24 h', item= CCNC(=O)Nc1nc2cc(-c3cnc(N4CCC(C)(C(=O)OC)CC4)nc3)cc(-c3ccccn3)c2s1 [Compound 169] )
Reply text: 6.25

---

Please provide measured Cmaxoral for the entries that follow.
assay_comment: Pharmacokinetic assay, IV and oral PK profile, rat
Format: in vivo
test_context: single peroral dose 3 mg/kg, plasma
Give bare numbers, in µg/mL.

CCNC(=O)Nc1nc2cc(-c3cnc(N4CCC(C(=O)O)(C5CC5)CC4)nc3)cc(-c3ccccn3)c2s1 [Compound 143]; 0.7
CCNC(=O)Nc1nc2c(F)c(-c3cnc(N4CCC(C)(C(=O)O)CC4)nc3)cc(-c3ccccn3)c2s1 [Compound 161]; 0.7

Please supply Cmaxoral for each of the following items, keeping them in order.
1. CCNC(=O)Nc1nc2cc(-c3ccc(N4CCC(C)(C(=O)O)CC4)nc3)cc(-c3ccccn3)c2s1 [Compound 4]
2. CCNC(=O)Nc1nc2cc(-c3ccc(N4CCC(CC)(C(=O)O)CC4)nc3)cc(-c3ccccn3)c2s1 [Compound 103]
3. CCNC(=O)Nc1nc2cc(-c3cnc(N4CCC(CC)(C(=O)O)CC4)nc3)cc(-c3ccccn3)c2s1 [Compound 98]

Reply text:
1. 0.6
2. 5.7
3. 3.5
